- TARGET UNDER TEST: Acetylcholinesterase (Homo sapiens) (UniProt P22303)
- Sequence (P22303 whole entry, looked up): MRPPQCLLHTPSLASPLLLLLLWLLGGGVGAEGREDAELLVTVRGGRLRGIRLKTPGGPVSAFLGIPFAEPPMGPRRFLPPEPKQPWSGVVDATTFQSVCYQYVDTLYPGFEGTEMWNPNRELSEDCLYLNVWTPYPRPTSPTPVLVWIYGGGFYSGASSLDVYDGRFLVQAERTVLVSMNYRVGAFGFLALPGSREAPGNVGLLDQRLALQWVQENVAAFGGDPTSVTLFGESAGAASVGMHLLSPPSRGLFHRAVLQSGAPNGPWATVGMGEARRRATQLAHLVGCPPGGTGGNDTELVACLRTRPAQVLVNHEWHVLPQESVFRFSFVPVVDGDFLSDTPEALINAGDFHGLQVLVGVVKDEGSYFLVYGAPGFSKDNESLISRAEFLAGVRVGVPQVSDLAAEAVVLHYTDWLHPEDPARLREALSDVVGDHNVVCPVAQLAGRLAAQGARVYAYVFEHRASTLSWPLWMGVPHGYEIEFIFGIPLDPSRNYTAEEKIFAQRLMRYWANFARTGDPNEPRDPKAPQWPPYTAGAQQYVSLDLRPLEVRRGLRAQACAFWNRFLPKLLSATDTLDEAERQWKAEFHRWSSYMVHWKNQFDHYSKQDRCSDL
- ASSAY NOTES: Acetylcholinesterase (AChE) small molecule antagonists: colormetric cell-based qHTS assay (AID 1347395); note: nearly all actives have a fitted effect of over 30% in size
- CONDITION: SH-SY5Y cells AChE activity, colorimetric (Ellman); series mostly up to 115 µM
Results filed as inconclusive are left out. Activity calls are given as the source filed them. Calls come from the whole dose curve.
Labels: active, inactive

1) CCCCCCCCCCCCCCCCC(C(=O)O)C(O)(CC(=O)O)C(=O)O (centres undefined)	inactive
2) O=C1CCc2cc(OCCCCc3nnnn3C3CCCCC3)ccc2N1	active
3) Clc1cc(Cl)cc(Cl)c1	inactive
4) CCCCCCCCOC(=O)c1cc(O)c(O)c(O)c1	inactive
5) C=CC(=O)OCC1CCCO1 (centres undefined)	inactive
6) CCCc1ccc(O)c(OC)c1	inactive
7) COC(=O)C(C)(C)C	inactive
8) CCCCCCNC(=O)n1cc(F)c(=O)[nH]c1=O	inactive
9) CC(C)(c1cc(Br)c(OCCO)c(Br)c1)c1cc(Br)c(OCCO)c(Br)c1	inactive
10) COc1ccc(C(=O)Nc2nc3ccccc3c(NCc3ccccc3)c2C#N)cc1	inactive
11) CCCC(=O)C(CC)Sc1ccoc1C (centres undefined)	inactive
12) CC(C)(C)c1nnc(NS(=O)(=O)c2ccc(N)cc2)s1	inactive
13) Cc1cc(O)c2c(O)c3c(O)cccc3cc2c1	inactive
14) CCCCOC(=O)C(C)CC (centres undefined)	inactive
15) CC1CCCO1 (centres undefined)	inactive
16) CCN(CC)CCNC(C(=O)OCCC(C)C)c1ccccc1 (centres undefined)	inactive
17) Cc1cccc(C)c1NC(=O)c1ccccc1C(=O)O	inactive
18) CC(C)C[P+](C)(CC(C)C)CC(C)C	active
19) CC1=NN(c2cccc(S(=O)(=O)O)c2)C(=O)C1	inactive
20) CCCCOCC	inactive
21) CCC(=O)/C=C/c1ccc(OC)cc1	inactive
22) O=C1N(c2ccccc2)c2ccccc2C1(Cc1ccncc1)Cc1ccncc1	inactive
23) COc1cc(C)ccc1C(C)C	inactive
24) O=C1NC(=O)c2cccc3cccc1c23	active
25) C[C@@H](O)[C@H]1C(=O)N2C(C(=O)O)=C(SCCN=CN)C[C@H]12	inactive
26) CN1CCN(C2=Nc3ccccc3Sc3ccc(Cl)cc32)CC1	inactive
27) O=C(O)CNC(=O)c1ccc([N+](=O)[O-])cc1	inactive
28) CCN(CC)CC	inactive
29) CC(C)C(=O)OCC(C)(C)C(O)C(C)C (centres undefined)	inactive

====

- TARGET UNDER TEST: Acetylcholinesterase (Homo sapiens) (UniProt P22303)
- ASSAY NOTES: Acetylcholinesterase (AChE) small molecule antagonists: enzyme-based qHTS assay with human liver microsomes (AID 1347399); note: % is set by controls: 0 for no effect and ±100 for the full control effect; nearly all actives have a fitted effect of over 60% in size
- CONDITION: series mostly up to 115 µM
Active and inactive are the calls of the source. Calls follow the shape of the full dose curve.
ASSAY ENDPOINT: activity change, negative = inhibition

1. CCCCN1C=CN(C)C1	0.0718% [at 23.6 µM] (inactive)
2. Nc1c(NC/C=C\COc2cc(CN3CCCCC3)ccn2)c(=O)c1=O	0.669% [at 23.6 µM] (inactive)
3. O=C(O)c1ccc2c(c1)nc(C(=O)NC1CCN(C3CC3)CC1)n2Cc1cc(-c2ccc(Cl)s2)on1	0.834% [at 23.6 µM] (inactive)
4. C[C@@H]1CN(c2c(F)c(F)c3c(=O)c(C(=O)O)cn(C4CC4)c3c2F)C[C@H](C)N1	-1.43% [at 23.6 µM] (inactive)
5. CCCC(=O)O[C@]1(C(=O)COC(=O)CC)CC[C@H]2[C@@H]3CCC4=CC(=O)CC[C@]4(C)[C@H]3[C@@H](O)C[C@@]21C	-1.51% [at 23.6 µM] (inactive)
6. C1CCCCCCCCCCC1	-0.0559% [at 23.6 µM] (inactive)
7. COC(=O)C1CC(=O)C(C(=O)OC)CC1=O (stereo unspecified)	-0.962% [at 10.5 µM] (inactive)
8. C/C=C/C(=O)CC	-3.23% [at 23.6 µM] (inactive)
9. O=S(=O)(O)c1cc(S(=O)(=O)O)c2ccc3c(S(=O)(=O)O)cc(S(=O)(=O)O)c4ccc1c2c43	2.76% [at 23.6 µM] (inactive)
10. O=S(=O)(O)c1ccc2c(N=Nc3ccc(S(=O)(=O)O)c4ccccc34)c(O)c(S(=O)(=O)O)cc2c1	1.78% [at 10.5 µM] (inactive)
11. CCC(C)S (stereo unspecified)	-0.581% [at 4.07 µM] (inactive)
12. N=C(N)N1CCc2ccccc2C1	2.85% [at 10.5 µM] (inactive)
13. COc1cc(C(C)C)c2c(c1)S(=O)(=O)N(COc1cc(=O)n3cccc(OCCN4CCCCC4)c3n1)C2=O	-1.08% [at 23.6 µM] (inactive)
14. CCCCCCCCCCCCS(=O)(=O)Cl	0.324% [at 23.6 µM] (inactive)
15. CC(CSC(=O)c1ccccc1)C(=O)N1C[C@@H](Sc2ccccc2)C[C@H]1C(=O)O (stereo partly specified)	2.18% [at 23.6 µM] (inactive)
16. [O]=[Mo](=[O])=[O]	0.081% [at 23.6 µM] (inactive)
17. C=CCCCCCCCCCCCCCC	-1.13% [at 23.6 µM] (inactive)
18. BrC/C=C/CBr	-2.1% [at 23.6 µM] (inactive)
19. CCCCCCCCCCCCCC=O	-0.486% [at 10.5 µM] (inactive)
20. O=C(CCN1CCN2CCCC2C1)N1c2ccccc2Sc2ccc(Cl)cc21 (stereo unspecified)	1.34% [at 23.6 µM] (inactive)
21. Cc1cccn2c(=O)c(-c3nnn[nH]3)cnc12	-5.01% [at 23.6 µM] (inactive)
22. O=C1c2ccccc2C(=O)c2cc(Cl)ccc21	0.0166% [at 10.5 µM] (inactive)
23. COc1cc(C(C)C)ccc1C	-4.86% [at 23.6 µM] (inactive)
24. C=CCCCCCCCCCCC	0.324% [at 10.5 µM] (inactive)
25. NCCCNCCSP(=O)(O)O	5.32% [at 10.5 µM] (inactive)
26. CCCCCCCCCCCCCCCCCCCl	0.243% [at 10.5 µM] (inactive)
27. Cc1cc(=O)c2c(O)c3c(O)cc(=O)c4c3c3c(cc(O)c1c23)C(C)(C)C=4O	0.168% [at 23.6 µM] (inactive)
28. C[C@@H](O)[C@H](N)C(=O)O	-2.85% [at 23.6 µM] (inactive)
29. CCN1/C(=C/C=C/c2sc3ccccc3[n+]2CC)Sc2ccccc21	4.36% [at 23.6 µM] (inactive)
30. CCCCCCCCCCCCCCCCCl	2.03% [at 23.6 µM] (inactive)
31. NC[C@H]1O[C@H](O[C@H]2[C@H](O)[C@@H](O[C@H]3O[C@H](CO)[C@@H](O)[C@H](N)[C@H]3O)[C@H](N)C[C@@H]2N)[C@H](O)[C@@H](O)[C@@H]1O	-5.67% [at 10.5 µM] (inactive)
